// reported max response for each item listed
test: qHTS Assay for Lipid Storage Modulators (AID 1519); settings: Drosophila S3 cells, BODIPY lipid droplet/cell ratio, laser cytometry; measured here: lipid channel max response; cells loaded with oleic acid
Inconclusive results are not listed.
# unit: % | format: bare number

compound | quantitative-result
CCCCOc1cc(CC2CNC(=O)N2)ccc1OC (stereo unspecified) | 40.3
CC1=C(/C=C/C(C)=C/C=C/C(C)=C\C(=O)O)C(C)(C)CCC1 | 13.6

# compound N=C(N)SCCc1cnc[nH]1 ; its max response = 5.06

# compound OC[C@H]1O[C@@H](n2cnc3cncnc32)[C@H](O)[C@@H]1O ; its max response = -1.94

# compound O=C(O)/C(=C/c1c(C(=O)O)[nH]c2cc(Cl)cc(Cl)c12)c1ccccc1 ; its max response = -9.3

# compound O=C(O)C1CCNCC1 ; its max response = 10

* * *

molecular target: Chromobox protein homolog 1 (Homo sapiens) (UniProt P83916); assay: qHTS Validation Assay for Inhibitors of HP1-beta Chromodomain Interactions with Methylated Histone Tails (AID 488953); conditions: HP1-beta chromodomain / methylated histone peptide binding assay; series mostly up to 114 µM;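 further: loss of AlphaScreen luminescence from HP1-beta binding biotinylated H3K9me3 peptide; on the % scale 0 is the no-effect control and ±100 the full control effect; nearly all actives have a fitted effect of over 50% in size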
Sequence (P83916 whole entry, looked up): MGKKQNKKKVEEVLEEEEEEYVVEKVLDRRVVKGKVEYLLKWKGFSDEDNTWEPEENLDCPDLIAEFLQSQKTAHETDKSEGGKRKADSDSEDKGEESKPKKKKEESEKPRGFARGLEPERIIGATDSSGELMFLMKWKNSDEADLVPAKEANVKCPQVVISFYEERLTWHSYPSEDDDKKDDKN
Records with an inconclusive call do not appear. The source made the active and inactive calls. The call rests on the fitted dose curve; in most records, active means well fitted inhibition curve with a large enough effect; inconclusive means small, poorly fitted or top-dose-only effect; inactive means no such curve, though single readings can be large or run the other way.
Log the outcome using a class from active, inactive

Field: example entries. Status: answers known.
compound | assigned-label
Nc1nc2c(nc(Br)n2C2OC3COP(=O)(O)O[C@@H]3C2O)c(=O)[nH]1 (some centres undefined) | inactive
CCCc1c(OCCCOc2ccc(OCC(=O)O)cc2)ccc(C(C)=O)c1O | inactive
COc1cc(CNC(=O)CCCCCCC(C)C)ccc1O | inactive
COCc1nc2c([nH]1)c(=O)n(C)c(=O)n2CC(C)C | inactive

Record request — test call for Cc1cccc(C(=O)NCN2CCN(c3ccccc3C#N)CC2)c1 inactive

Record request — test call for CN[C@H](CC(=O)O)C(=O)O inactive

Record request — test call for O=[N+]([O-])c1cccc2cn[nH]c12 inactive

Record request — test call for COc1ccc(-c2cc3ncc(C)n3c(Nc3ncccc3C(N)=O)n2)cc1OC inactive

Record request — test call for O=S(=O)(c1cccc2c(Cl)cccc12)N1CCCNCC1 inactive

Record request — test call for NC/C=C\C(=O)O inactive

* * *

Molecular target: Hexokinase-4 (Homo sapiens) + Glucokinase regulatory protein (Homo sapiens) (UniProt P35557+Q14397)
Sequence (P35557 whole entry, looked up): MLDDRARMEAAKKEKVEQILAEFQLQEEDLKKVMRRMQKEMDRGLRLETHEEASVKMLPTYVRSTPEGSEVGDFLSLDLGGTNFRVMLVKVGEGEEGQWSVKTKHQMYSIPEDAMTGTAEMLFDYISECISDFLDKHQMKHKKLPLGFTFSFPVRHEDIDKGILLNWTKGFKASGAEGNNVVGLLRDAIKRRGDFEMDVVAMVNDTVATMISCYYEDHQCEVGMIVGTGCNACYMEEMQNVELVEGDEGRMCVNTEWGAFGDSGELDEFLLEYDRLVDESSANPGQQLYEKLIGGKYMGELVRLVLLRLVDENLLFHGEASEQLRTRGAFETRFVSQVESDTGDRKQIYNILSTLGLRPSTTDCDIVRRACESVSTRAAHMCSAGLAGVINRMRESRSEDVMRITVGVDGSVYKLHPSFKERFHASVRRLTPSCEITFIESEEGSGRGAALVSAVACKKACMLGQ
Sequence (Q14397 whole entry, looked up): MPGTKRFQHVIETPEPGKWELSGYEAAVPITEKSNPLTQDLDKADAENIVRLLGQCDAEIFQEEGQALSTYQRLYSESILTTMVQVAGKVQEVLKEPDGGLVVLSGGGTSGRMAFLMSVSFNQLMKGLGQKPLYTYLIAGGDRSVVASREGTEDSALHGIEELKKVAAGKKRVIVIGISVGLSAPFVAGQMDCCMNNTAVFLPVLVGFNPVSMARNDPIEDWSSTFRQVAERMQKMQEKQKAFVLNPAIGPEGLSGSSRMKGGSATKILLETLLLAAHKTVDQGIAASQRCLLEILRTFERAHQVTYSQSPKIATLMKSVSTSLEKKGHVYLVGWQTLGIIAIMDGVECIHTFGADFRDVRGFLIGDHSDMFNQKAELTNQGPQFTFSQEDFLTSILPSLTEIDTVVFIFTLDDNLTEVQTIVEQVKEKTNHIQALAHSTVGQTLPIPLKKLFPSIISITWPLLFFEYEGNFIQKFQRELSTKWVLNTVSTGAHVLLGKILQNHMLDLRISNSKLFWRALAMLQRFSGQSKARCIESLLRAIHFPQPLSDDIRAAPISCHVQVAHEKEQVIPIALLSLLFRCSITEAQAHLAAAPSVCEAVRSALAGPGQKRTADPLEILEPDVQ
Assay: qHTS assay for inhibitors of recombinant human GCK-GKRP interaction: HTRF assay (AID 743207);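 further: 0% = DMSO with GCK present and -100% = DMSO wells lacking GCK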
Settings: recombinant GCK-GKRP HTRF binding, 60 min, with sorbitol-6-phosphate; series mostly up to 57.5 µM
From the text: Glucokinase (GCK) is a glucose sensor in hepatocytes and pancreatic beta-cells. Hepatic GCK is regulated by glucokinase regulatory protein (GKRP), which is predominantly localized to the liver. GKRP binds to GCK inhibiting its activity in the fasting state while in the presence of glucose the GKRP is displaced. There is an additional layer of regulation by fructose 1-phosphate and fructose 6-phosphate, which inhibit and enhance the GCK-GKRP interaction, respectively. […]
Activity calls are given as the source filed them. Calls follow the shape of the dose curve; as a rule, active = well fitted curve in the direction sought with a large enough effect; inconclusive = small, poorly fitted or top-dose-only effect, or another doubt; inactive = no such curve, though single readings can be large or run the other way.
Log the outcome using a class from 1 (yes) for active, 0 (no) for inactive

Record request — test call for CC1CNCCN1S(=O)(=O)c1cccc2cnccc12 (configuration not stated) 0 (no)

* * *

experiment: qHTS for differential inhibitors of proliferation of Plasmodium falciparum line D10 (AID 1877); conditions: series mostly up to 28.7 µM;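 further: parasites grown with compound for 72 h before DNA staining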
Records with an inconclusive call do not appear. The source made the active and inactive calls. Calls come from the whole dose curve; as a rule, active = well fitted curve in the direction sought with a large enough effect; inconclusive = small, poorly fitted or top-dose-only effect, or another doubt; inactive = no such curve, though single readings can be large or run the other way. Residues, ends and D or L forms follow the SMILES beside them. *: point of attachment. Cbz = O=C(OCc1ccccc1)*
Log the outcome using a class from 1 = active, 0 = inactive

Field: example entries. Status: answers known.
molecule | assigned-label
CC(C)[C@H](NC(=O)OCc1ccccc1)C(=O)N[C@H](C=O)Cc1ccccc1 (Cbz-Val-Phe-aldehyde) | 1
Cc1cccc(C(=O)NCN2CCN(c3ccccc3C#N)CC2)c1 | 0
NCCS(=O)O | 0
CC(=O)N[C@@H](Cc1c[nH]c2ccccc12)C(=O)OCc1cc(C(F)(F)F)cc(C(F)(F)F)c1 | 0

Next:
Record request — test call for COc1ccc(C(=O)NCc2cccnc2)cc1C(=O)NCc1cccnc1 0

* * *

test: qHTS for differential inhibitors of proliferation of Plasmodium falciparum line Dd2 (AID 1882); conditions: Plasmodium falciparum Dd2 proliferation inhibition; series mostly up to 28.7 µM; further: nearly all actives have a fitted effect of over 65% in size
Inconclusive results are not listed. Active and inactive are the calls of the source. Calls follow the shape of the dose curve; as a rule, active = well fitted inhibition curve with a large enough effect; inconclusive = small, poorly fitted or top-dose-only effect; inactive = flat fitted curve, though single readings scatter.
Log the outcome using a class from 1 (yes) for active, 0 (no) for inactive

Field: example entries. Status: answers known.
molecule | assigned-label
CCSC(=N)N | 0 (no)
Fc1ccc(CN(C2=NCCN2)c2c(Cl)cccc2Cl)cc1 | 1 (yes)
CCCCCCCCCCC/C=C\C(C)(C)/C=C\CCCC(=O)O | 0 (no)

Record request — test call for COc1ccc2c(c1)c(CC(=O)O)c(C)n2Cc1ccc(Cl)cc1 0 (no)

Record request — test call for CCCc1c(OCCCOc2ccc(OCC(=O)O)cc2)ccc(C(C)=O)c1O 0 (no)

Record request — test call for CCCN(CCc1ccccc1)C1CCc2c(O)cccc2C1 (stereo unspecified) 1 (yes)

Record request — test call for O=C(O)c1ccccc1Nc1ccccc1 0 (no)

Record request — test call for C=CCn1c(=O)c2c(nc(-c3ccc(S(=O)(=O)O)cc3)n2C)n(C)c1=O 0 (no)

Record request — test call for Nc1ncnc2c1ncn2C1CCCO1 (stereo unspecified) 0 (no)

Record request — test call for CC(N)=NCCCC[C@@H](N)C(=O)O 0 (no)

Record request — test call for C[C@H](O)C(=O)C1=Nc2c(nc(N)[nH]c2=O)NC1 0 (no)

Record request — test call for N#Cc1cc2nc(O)c(O)nc2cc1[N+](=O)[O-] 0 (no)

Record request — test call for O=C(O)C1=CCCN(CCON=C(c2ccccc2)c2ccccc2)C1 0 (no)

Record request — test call for NC(=Nc1ccccc1)NC(=O)c1nc(Cl)c(N)nc1N 0 (no)

Record request — test call for COc1ccccc1N1CCN(CCCNc2c(C)c(=O)n(C)c(=O)n2C)CC1 0 (no)

Record request — test call for OC[C@H]1NC[C@@H](O)[C@@H]1O 0 (no)

Record request — test call for O=C(O)Cc1c[nH]c2ccc(O)cc12 0 (no)

* * *

experiment: qHTS for differential inhibitors of proliferation of Plasmodium falciparum line Dd2 (AID 1882); details: Plasmodium falciparum Dd2 proliferation inhibition; series mostly up to 28.7 µM; further: nearly all actives have a fitted effect of over 65% in size
Inconclusive results are not listed. The source made the active and inactive calls. The call rests on the fitted dose curve; in most records, active means well fitted inhibition curve with a large enough effect; inconclusive means small, poorly fitted or top-dose-only effect; inactive means flat fitted curve, though single readings scatter.
Log the outcome using a class from yes for active, no for inactive

compound | assigned-label
COc1ccc(CCN(C)CCc2ccc(OC)c(OC)c2)cc1OC | no
CC(N)(Cc1ccc(O)c(O)c1)C(=O)O (stereo unspecified) | no
Nc1ncnc2c1ncn2C1CCCC1 | no
Cn1c(=O)c2[nH]c(-c3ccc(S(=O)(=O)O)cc3)nc2n(C)c1=O | no
CC(N)=O | no

Record request — test call for N[C@H](C(=O)O)[C@H]1C[C@@H]1C(=O)O no

Record request — test call for O=c1[nH]c2ccccc2c2ccccc12 no

Record request — test call for N=C(N)c1ccc(OCCCCCOc2ccc(C(=N)N)cc2)cc1 (tested in a mixture with another compound) yes

Record request — test call for CN(C)C(=O)/N=N/C(=O)N(C)C no

Record request — test call for O=C(O)/C=C/c1cnc[nH]1 no

Record request — test call for C=C(C)C1CC=C(C(=O)O)CC1 (stereo unspecified) no

Record request — test call for CNc1cc(NS(=O)(=O)c2ccc(N)cc2)nc(NC)n1 no

Record request — test call for N[C@@H](Cc1c[nH]c2ccccc12)C(=O)O no

Record request — test call for O=C1C2C=CC=CC2=NC(=S)N1CCN1CCC(=C(c2ccc(F)cc2)c2ccc(F)cc2)CC1 (stereo unspecified) no

Record request — test call for Nc1ccc2c3c(cccc13)C(=O)NC2=O no

Record request — test call for Oc1cc(O)c2c(c1)O[C@H](c1ccc(O)c(O)c1)[C@@H](O)C2 no

Record request — test call for Nc1ncnc2c1c(-c1ccc(Oc3ccccc3)cc1)cn2C1CCCC1 yes

Record request — test call for CC(C)(C)NCC(O)COc1cccc2[nH]c(=O)[nH]c12 (stereo unspecified) no

Record request — test call for NC1(C(=O)O)CCCCC1 no

Record request — test call for CCN(CC)CCCCCCCCOC(=O)c1cc(OC)c(OC)c(OC)c1 yes

* * *

system: SC27B; test: qHTS profiling for inhibitors of Plasmodium falciparum proliferation (AID 504749); further: nearly all actives have a fitted effect of over 60% in size; conditions: P. falciparum in erythrocytes, SYBR Green DNA, 72 h; series mostly up to 28.7 µM
Inconclusive results are not listed. The source made the active and inactive calls. Calls come from the whole dose curve; as a rule, active = well fitted inhibition curve with a large enough effect; inconclusive = small, poorly fitted or top-dose-only effect; inactive = flat fitted curve, though single readings scatter.
Log the outcome using a class from active, inactive

Field: example entries. Status: answers known.
compound | assigned-label
c1ccc(C2CN3CCSC3=N2)cc1 (stereo not given) | active
CCCCCCCCCCCCCCCCCCOC[C@H](COP(=O)([O-])OCC[N+](C)(C)C)OC | inactive

Record request — test call for CN1C2CCC1CC(OC(c1ccccc1)c1ccccc1)C2 (stereo not given) inactive

Record request — test call for CC(C)NC[C@H](O)COc1ccc(CC(N)=O)cc1 inactive

Record request — test call for CCCCCCCCCCCCCCC[C@H](O)[C@H](N)CO inactive
